Tgt: Aldo-keto reductase family 1 member C2 (Homo sapiens, UniProt P52895)
Sequence (P52895 whole entry): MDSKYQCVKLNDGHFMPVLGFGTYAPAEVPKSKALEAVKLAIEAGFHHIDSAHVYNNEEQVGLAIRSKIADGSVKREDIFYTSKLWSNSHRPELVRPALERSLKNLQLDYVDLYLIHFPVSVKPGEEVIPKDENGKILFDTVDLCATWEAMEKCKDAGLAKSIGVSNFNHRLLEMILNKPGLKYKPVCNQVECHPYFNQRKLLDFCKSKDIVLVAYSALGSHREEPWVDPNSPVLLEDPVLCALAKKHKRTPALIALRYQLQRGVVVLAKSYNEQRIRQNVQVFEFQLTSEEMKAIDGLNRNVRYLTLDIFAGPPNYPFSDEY
Test Name: Inhibition of human AKR1C2 using S-tetralol as substrate in presence of NADP by fluorescence method
Measured Property: IC50 (µM)

In [3]: df
Out[3]:
                                 smiles_str  value
0   CC(=O)c1ccc(Nc2cccc(C(=O)O)c2)c2ccccc12   19.5
1  O=C(O)c1cccc(Nc2ccc([N+](=O)[O-])c3c([N+](=O)[O-])cccc23)c1   15.6
2  O=C(O)c1cccc(Nc2ccc([N+](=O)[O-])c3ccccc23)c1   24.7
